assayRemarks: Selectivity ratio of IC50 for human CB2 receptor to IC50 for CB1 receptor in Sprague-Dawley rat cerebellum
Assay type: tissue-based
Classification field: true (1) = Ratio IC50 at or over 100; false (0) = Ratio IC50 under 100.

>>> assignedcategory("FC(F)(F)C1(c2nnc(-c3nn(-c4ccccc4Cl)c(-c4ccc(Br)cc4)c3Cn3cncn3)s2)CC1")
"true (1)"
>>> assignedcategory("FC(F)(F)c1ccccc1-n1nc(-c2nnc(C3(C(F)(F)F)CCC3)s2)c(Cn2cncn2)c1-c1ccc(Cl)cc1")
"false (0)"
>>> assignedcategory("CC(C)(C)c1nnc(-c2nn(-c3ccc(Cl)cc3Cl)c(-c3ccc(Cl)cc3)c2Cn2cncn2)s1")
"true (1)"
>>> assignedcategory("FC(F)(F)C1(c2nnc(-c3nn(-c4ccc(Cl)cc4Cl)c(-c4ccc(Cl)cc4)c3Cn3cncn3)s2)CCC1")
"true (1)"
>>> assignedcategory("FC(F)(F)c1ccccc1-n1nc(-c2nnc(C3(C(F)(F)F)CCC3)s2)c(Cn2cncn2)c1-c1ccc(Br)cc1")
"false (0)"

* * *

Examples of compounds with documented clearance follow.
assayRemarks: Clearance in Sprague-Dawley rat at 1 mg/kg, iv
Assay type: ADME, organism-based
Design: dose 1 mg/kg, route intravenous
conditionSummary: in vivo
experimentalEndpoint: clearance (mL/min/kg)

>>> reportedresult("Cc1c(C(=O)NN2CCCCC2)nn(-c2ccc(Cl)cc2Cl)c1-c1ccc(Cl)cc1 [RIMONABANT]")
82.4
>>> reportedresult("CC(C)(C)c1nnc(-c2nn(-c3ccccc3Cl)c(-c3ccc(Br)cc3)c2Cn2cncn2)s1")
10.7
>>> reportedresult("C[C@H](NC(=O)C(C)(C)Oc1ccc(C(F)(F)F)cn1)[C@@H](Cc1ccc(Cl)cc1)c1cccc(C#N)c1 [TARANABANT]")
40.8

* * *

Examples of molecules with documented Ratio IC50 follow.
assayRemarks: Selectivity ratio of IC50 for human CB2 receptor to IC50 for CB1 receptor in Sprague-Dawley rat cerebellum
Type: tissue-based
experimentalEndpoint: Ratio IC50

>>> reportedresult("FC(F)(F)C1(c2nnc(-c3nn(-c4ccc(Cl)cc4Cl)c(-c4ccc(Cl)cc4)c3Cn3cncn3)s2)CC1")
1590
>>> reportedresult("Clc1ccc(-c2c(Cn3cncn3)c(-c3nnc(C4(c5ccc(Cl)cc5)CC4)s3)nn2-c2ccccc2Cl)cc1")
274
>>> reportedresult("FC(F)(F)C1(c2nnc(-c3nn(-c4ccccc4Cl)c(-c4ccc(Br)cc4)c3Cn3cncn3)s2)CCC1")
87
>>> reportedresult("CC(C)(C)c1nnc(-c2nn(-c3ccccc3Cl)c(-c3ccc(Br)cc3)c2Cn2cncn2)s1")
807

* * *

For UniProt P10635, measured IC50 is reported for the entries below.
Sequence (P10635 whole entry): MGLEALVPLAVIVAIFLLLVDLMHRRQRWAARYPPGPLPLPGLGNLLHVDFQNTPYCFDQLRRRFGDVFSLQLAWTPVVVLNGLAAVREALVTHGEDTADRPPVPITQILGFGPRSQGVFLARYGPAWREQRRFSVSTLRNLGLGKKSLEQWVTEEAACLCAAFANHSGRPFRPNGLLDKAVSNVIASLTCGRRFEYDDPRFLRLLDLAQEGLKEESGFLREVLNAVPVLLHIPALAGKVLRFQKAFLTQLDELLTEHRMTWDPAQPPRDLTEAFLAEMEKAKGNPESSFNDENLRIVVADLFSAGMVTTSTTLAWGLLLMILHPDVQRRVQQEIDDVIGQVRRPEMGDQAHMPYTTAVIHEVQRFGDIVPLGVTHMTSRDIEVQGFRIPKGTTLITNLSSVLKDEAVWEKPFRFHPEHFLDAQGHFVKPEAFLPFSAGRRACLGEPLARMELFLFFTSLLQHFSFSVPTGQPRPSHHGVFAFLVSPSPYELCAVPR
experimentalEndpoint: IC50

>>> reportedresult("C[C@H](NC(=O)C(C)(C)Oc1ccc(C(F)(F)F)cn1)[C@@H](Cc1ccc(Cl)cc1)c1cccc(C#N)c1")
"0.59 µM"
>>> reportedresult("CC(C)(C)c1nnc(-c2nn(-c3ccccc3Cl)c(-c3ccc(Br)cc3)c2Cn2cncn2)s1")
"> 20 µM"
>>> reportedresult("CC(C)(C)c1nnc(-c2nn(-c3ccc(Cl)cc3Cl)c(-c3ccc(Br)cc3)c2Cn2cncn2)s1")
"> 20 µM"
>>> reportedresult("FC(F)(F)C1(c2nnc(-c3nn(-c4ccc(Cl)cc4Cl)c(-c4ccc(Cl)cc4)c3Cn3cncn3)s2)CCC1")
"> 20 µM"
>>> reportedresult("Cc1c(C(=O)NN2CCCCC2)nn(-c2ccc(Cl)cc2Cl)c1-c1ccc(Cl)cc1")
"> 20 µM"

* * *

pIC50: −log10 of the molar value.
For Cannabinoid receptor 1 (Rattus norvegicus), measured pIC50 is reported for the entries below.
experimentalEndpoint: pIC50

>>> reportedresult("FC(F)(F)C1(c2nnc(-c3nn(-c4ccc(Cl)cc4Cl)c(-c4ccc(Br)cc4)c3Cn3cncn3)s2)CC1")
9.00
>>> reportedresult("CC(C)(C)c1nnc(-c2nn(-c3ccc(Cl)cc3Cl)c(-c3ccc(Cl)cc3)c2Cn2cncn2)s1")
8.76
>>> reportedresult("FC(F)(F)C1(c2nnc(-c3nn(-c4ccccc4Cl)c(-c4ccc(Cl)cc4)c3Cn3cncn3)s2)CCC1")
9.00
>>> reportedresult("Cc1ccc(C2(c3nnc(-c4nn(-c5ccc(Cl)cc5Cl)c(-c5ccc(Br)cc5)c4Cn4cncn4)s3)CC2)cc1")
8.56

* * *

assayRemarks: Cmax in Sprague-Dawley rat at 5 mg/kg, po
Assay type: ADME, organism-based
Design: dose 5 mg/kg, route oral
conditionSummary: in vivo
experimentalEndpoint: Cmax (ng/mL)

>>> reportedresult("Cc1c(C(=O)NN2CCCCC2)nn(-c2ccc(Cl)cc2Cl)c1-c1ccc(Cl)cc1 [RIMONABANT]")
290
>>> reportedresult("CC(C)(C)c1nnc(-c2nn(-c3ccccc3Cl)c(-c3ccc(Br)cc3)c2Cn2cncn2)s1")
1530
>>> reportedresult("C[C@H](NC(=O)C(C)(C)Oc1ccc(C(F)(F)F)cn1)[C@@H](Cc1ccc(Cl)cc1)c1cccc(C#N)c1 [TARANABANT]")
360

* * *

System: Vero
assayRemarks: Cytotoxicity against african green monkey Vero cells
Assay type: cell-based
conditionSummary: Chlorocebus sabaeus
Examples of molecules with documented EC50 follow.
experimentalEndpoint: EC50

>>> reportedresult("CC(C)(C)c1nnc(-c2nn(-c3ccccc3Cl)c(-c3ccc(Br)cc3)c2Cn2cncn2)s1")
"> 100 µM"
>>> reportedresult("FC(F)(F)C1(c2nnc(-c3nn(-c4ccc(Cl)cc4Cl)c(-c4ccc(Cl)cc4)c3Cn3cncn3)s2)CCC1")
"> 100 µM"

* * *

Examples of compounds with documented Tmax follow.
assayRemarks: Tmax in Sprague-Dawley rat at 5 mg/kg, po
Format: ADME, organism-based
Design: dose 5 mg/kg, route oral
conditionSummary: in vivo
experimentalEndpoint: Tmax

>>> reportedresult("Cc1c(C(=O)NN2CCCCC2)nn(-c2ccc(Cl)cc2Cl)c1-c1ccc(Cl)cc1")
"30 min"
>>> reportedresult("C[C@H](NC(=O)C(C)(C)Oc1ccc(C(F)(F)F)cn1)[C@@H](Cc1ccc(Cl)cc1)c1cccc(C#N)c1")
"30 min"
>>> reportedresult("CC(C)(C)c1nnc(-c2nn(-c3ccccc3Cl)c(-c3ccc(Br)cc3)c2Cn2cncn2)s1")
"60 min"

* * *

Examples of compounds with documented IC50 follow.
studySystem: Cannabinoid receptor 2 (Homo sapiens, UniProt P34972)
Sequence (P34972 whole entry): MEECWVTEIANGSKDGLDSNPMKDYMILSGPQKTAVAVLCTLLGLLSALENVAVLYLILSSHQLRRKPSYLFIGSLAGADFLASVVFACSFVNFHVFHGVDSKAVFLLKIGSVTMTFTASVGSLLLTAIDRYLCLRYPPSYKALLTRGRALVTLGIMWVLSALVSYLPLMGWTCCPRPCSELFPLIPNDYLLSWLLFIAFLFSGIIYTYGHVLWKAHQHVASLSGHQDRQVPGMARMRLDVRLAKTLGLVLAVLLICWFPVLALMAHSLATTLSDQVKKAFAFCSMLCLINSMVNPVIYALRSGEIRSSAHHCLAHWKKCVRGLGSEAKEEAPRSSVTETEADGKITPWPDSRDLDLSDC
assayRemarks: Displacement of [3H]WIN-55212-2 from human CB2 receptor expressed in CHO-K1 cells after 1 hr by liquid scintillation counting
experimentalEndpoint: IC50

>>> reportedresult("CC(C)(C)c1nnc(-c2nn(-c3ccc(Cl)cc3Cl)c(-c3ccc(Br)cc3)c2Cn2cncn2)s1")
"0.43 µM"
>>> reportedresult("Clc1ccc(-c2c(Cn3cncn3)c(-c3nnc(C4(c5ccc(Cl)cc5)CC4)s3)nn2-c2ccccc2Cl)cc1")
"0.265 µM"
>>> reportedresult("FC(F)(F)c1ccccc1-n1nc(-c2nnc(C3(C(F)(F)F)CCC3)s2)c(Cn2cncn2)c1-c1ccc(Cl)cc1")
"0.0768 µM"
>>> reportedresult("FC(F)(F)C1(c2nnc(-c3nn(-c4ccccc4Cl)c(-c4ccc(Br)cc4)c3Cn3cncn3)s2)CC1")
"0.124 µM"
>>> reportedresult("FC(F)(F)C1(c2nnc(-c3nn(-c4ccccc4Cl)c(-c4ccc(Br)cc4)c3Cn3cncn3)s2)CCC1")
"0.0736 µM"
>>> reportedresult("CC(C)(C)c1nnc(-c2nn(-c3ccccc3Cl)c(-c3ccc(Br)cc3)c2Cn2cncn2)s1")
"0.549 µM"
>>> reportedresult("FC(F)(F)C1(c2nnc(-c3nn(-c4ccc(Cl)cc4Cl)c(-c4ccc(Cl)cc4)c3Cn3cncn3)s2)CC1")
"3.63 µM"
>>> reportedresult("FC(F)(F)C1(c2nnc(-c3nn(-c4ccc(Cl)cc4Cl)c(-c4ccc(Cl)cc4)c3Cn3cncn3)s2)CCC1")
"0.505 µM"
>>> reportedresult("FC(F)(F)c1ccccc1-n1nc(-c2nnc(C3(C(F)(F)F)CCC3)s2)c(Cn2cncn2)c1-c1ccc(Br)cc1")
"0.0276 µM"
>>> reportedresult("CC(C)(C)c1nnc(-c2nn(-c3ccc(Cl)cc3Cl)c(-c3ccc(Cl)cc3)c2Cn2cncn2)s1")
"1.14 µM"

* * *

pIC50: −log10 of the molar value.
For Cannabinoid receptor 1 (Rattus norvegicus, UniProt P20272), measured pIC50 is reported for the entries below.
experimentalEndpoint: pIC50

>>> reportedresult("CC(C)(C)c1nnc(-c2nn(-c3ccccc3Cl)c(-c3ccc(Br)cc3)c2Cn2cncn2)s1")
9.17
>>> reportedresult("Clc1ccc(-c2c(Cn3cncn3)c(-c3nnc(C4(c5ccc(Cl)cc5)CC4)s3)nn2-c2ccccc2Cl)cc1")
9.02
>>> reportedresult("CC1(c2nnc(-c3nn(-c4ccc(Cl)cc4Cl)c(-c4ccc(Cl)cc4)c3Cn3cncn3)s2)CC1")
8.62
>>> reportedresult("Clc1ccc(C2(c3nnc(-c4nn(-c5ccc(Cl)cc5Cl)c(-c5ccc(Br)cc5)c4Cn4cncn4)s3)CC2)cc1")
9.06
